experiment: In vitro therapeutic index (IC50 cytotoxicity/ IC50 complement inhibition) was determined; format: functional
attribute measured: TI
Kindly provide the number alone.

# TI of CC1(C)C2CC[C@@H](Cc3ccccc3C(=O)O)C[C@@]2(C)CC[C@@H]1O (stereo partly drawn) = 0.8

Record CC1(C)C2CCC[C@H](/C=C/c3ccccc3C(=O)O)[C@@]2(C)CC[C@@H]1O (stereo partly drawn) , field TI: 0.6

Value of TI reported for the compound CC1(C)C2CCC[C@H](/C=C/c3ccc(C(=O)O)cc3)[C@@]2(C)CC[C@@H]1O (stereo partly drawn) is 0.6

Documented TI of CC1(C)CC[C@]2(C(=O)O)CC[C@]3(C)C(=CC[C@@H]4[C@@]5(C)CC[C@H](O)C(C)(C)[C@@H]5CC[C@]43C)[C@@H]2C1 : 1.55

Recorded result, CC1(C)C2CCC(Cc3ccc(C(=O)O)cc3)C[C@@]2(C)CC[C@@H]1O (single isomer, unassigned) , TI: 0.6

Data point: COc1ccc(CO[C@H]2CC[C@]3(C)CC(Cc4cccc(C(=O)O)c4)CCC3C2(C)C)cc1 (single isomer, unassigned) ; TI = 0.4

TI reading for CC1(C)C2CCC[C@H](/C=C/c3cccc(C(=O)O)c3)[C@@]2(C)CC[C@@H]1O (stereo partly drawn) : 0.5

Noted for CC1(C)C2CCC(Cc3cccc(C(=O)O)c3)C[C@@]2(C)CC[C@@H]1O (single isomer, unassigned) : its TI reads 0.6

Where do these numbers come from? They come from ChEMBL document CHEMBL1134105.
